biological target: Melatonin receptor type 1A (Homo sapiens, UniProt P48039); assay: Displacement of 2-[1251]-iodomelatonin from human MT1 receptor expressed in CHO cells incubated for 1 hr by gamma counting method; format: cell-based
Sequence (P48039 whole entry): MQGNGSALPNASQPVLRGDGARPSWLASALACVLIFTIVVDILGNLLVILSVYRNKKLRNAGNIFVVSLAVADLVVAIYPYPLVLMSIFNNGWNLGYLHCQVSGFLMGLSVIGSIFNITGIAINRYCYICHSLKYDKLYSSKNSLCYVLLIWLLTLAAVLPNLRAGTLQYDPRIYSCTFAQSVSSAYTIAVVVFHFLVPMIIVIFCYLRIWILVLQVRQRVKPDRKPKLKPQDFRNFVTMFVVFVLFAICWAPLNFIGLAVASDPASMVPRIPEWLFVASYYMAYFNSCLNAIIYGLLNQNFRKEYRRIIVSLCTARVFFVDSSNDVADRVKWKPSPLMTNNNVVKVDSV
measured_endpoint: pKi
One number for each entry, as −log10 of the molar value.

Note down pKi recorded for CC(=O)NCCc1c[nH]c2ccc(OCCc3ccccc3)cc12
9.82

----------
For each entry below, report its pKi value.
experiment: Displacement of 2-[1251]-iodomelatonin from rabbit parietal cortex melatonin receptor; set-up: species or system Oryctolagus cuniculus
One number for each entry, as −log10 of the molar value.

These recorded examples may help you get a feel for the data.
COc1ccc2[nH]c(Br)c(CCNC(C)=O)c2c1	10.35
COc1ccc2[nH]c(I)c(CCNC(C)=O)c2c1	10.60

Note down pKi recorded for COc1ccc2[nH]cc(CCNC(C)=O)c2c1
9.39
